// provenance: the supplement of paper PMC10126150

system: ATP; assay: switch fluorescence ratio, 500 uM ATP over buffer (Cy3 cluster intensity, sum of 5 cycles each) (fold (ratio)); higher = stronger signal-on switching upon ATP binding; sequences stand for … in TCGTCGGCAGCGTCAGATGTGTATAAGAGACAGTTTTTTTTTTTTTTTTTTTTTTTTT…TC; settings: aptamer strand: ATP DNA aptamer (quencher-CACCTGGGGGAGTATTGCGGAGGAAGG + anchor), 100 nM annealed; ATP concentration: 500 uM;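 also: ATP exposure 15 min at 22 °C before imaging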
measured_endpoint: switch fluorescence ratio
Please reply with the number alone, leaving off any unit.

1) GAAAGGGGAT	0.99

Please examine the following record next.
response.value for `TAGTGTGTTT` (field: switch fluorescence ratio) = 0.982

====

system: ATP; experiment: switch fluorescence ratio, 500 uM ATP over buffer (Cy3 cluster intensity, sum of 5 cycles each) (fold (ratio)); higher = stronger signal-on switching upon ATP binding; sequences stand for … in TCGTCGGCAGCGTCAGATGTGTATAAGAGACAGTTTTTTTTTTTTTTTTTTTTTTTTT…TC; conditions: aptamer strand: ATP DNA aptamer (quencher-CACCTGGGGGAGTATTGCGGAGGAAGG + anchor), 100 nM annealed; ATP concentration: 500 uM;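 also: ATP exposure 15 min at 22 °C before imaging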
# switch fluorescence ratio annotations
Please reply with the number alone, leaving off any unit.

1. TTGGATAGGT	0.981
2. TTTGATGCAT	1.03
3. TCCTGCCTTA	1.1
4. AGCAGGTGTG	1.18
5. AGAGTTCCTG	1.01
6. GGTTATATAG	1.01

response.value for `TACGTCTTAG` (field: switch fluorescence ratio) = 0.972

response.value for `TTTGTATTGG` (field: switch fluorescence ratio) = 0.998

response.value for `AAATGACAGC` (field: switch fluorescence ratio) = 1.06

response.value for `TCTTCCTAGA` (field: switch fluorescence ratio) = 1.03

response.value for `CTTCTTTCTC` (field: switch fluorescence ratio) = 1.05

response.value for `TGGGATAGAT` (field: switch fluorescence ratio) = 0.996

response.value for `TTCCGTCACG` (field: switch fluorescence ratio) = 1.08

response.value for `ATGGTGGGGG` (field: switch fluorescence ratio) = 0.995

response.value for `TCTGCTCTGG` (field: switch fluorescence ratio) = 0.983

response.value for `GGGGGCTATG` (field: switch fluorescence ratio) = 0.99

response.value for `GCATGTGGCT` (field: switch fluorescence ratio) = 0.994

response.value for `GGGGATTACG` (field: switch fluorescence ratio) = 0.984

response.value for `TTGGGCCTCT` (field: switch fluorescence ratio) = 1.01

response.value for `CAGGTCGGCT` (field: switch fluorescence ratio) = 0.995

====

# switch fluorescence ratio annotations
system: ATP; assay: switch fluorescence ratio, 500 uM ATP over buffer (Cy3 cluster intensity, sum of 5 cycles each) (fold (ratio)); higher = stronger signal-on switching upon ATP binding; sequences stand for … in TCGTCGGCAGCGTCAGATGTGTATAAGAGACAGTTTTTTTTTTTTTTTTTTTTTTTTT…TC; details: aptamer strand: ATP DNA aptamer (quencher-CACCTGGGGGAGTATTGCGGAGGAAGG + anchor), 100 nM annealed; ATP concentration: 500 uM;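 also: ATP exposure 15 min at 22 °C before imaging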
Please reply with the number alone, leaving off any unit.

Example cases with answers are listed next.
1. GGGGGAGGGG	1
2. TACGGTTCGC	1.02
3. TGCTGGAGGA	1.04
4. GTCCGCCTTG	1.07

response.value for `GTGTTGTATT` (field: switch fluorescence ratio) = 0.988

====

# switch fluorescence ratio annotations
system: ATP; test: switch fluorescence ratio, 500 uM ATP over buffer (Cy3 cluster intensity, sum of 5 cycles each) (fold (ratio)); higher = stronger signal-on switching upon ATP binding; sequences stand for … in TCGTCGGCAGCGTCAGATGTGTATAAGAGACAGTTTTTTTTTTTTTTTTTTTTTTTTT…TC; settings: aptamer strand: ATP DNA aptamer (quencher-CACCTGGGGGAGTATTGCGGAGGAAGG + anchor), 100 nM annealed; ATP concentration: 500 uM;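 also: ATP exposure 15 min at 22 °C before imaging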
Please reply with the number alone, leaving off any unit.

Example cases with answers are listed next.
1) ATACTAAGTG	1.01
2) TAGGGGGTGT	0.991
3) AATTGTAGGG	0.987
4) TCTATCCCAG	1.13
5) GACATTATGC	1.03
6) TAGTTGTTTG	0.999
7) AAATTTGTTA	0.985
8) GAGATAGGTA	0.997

Lab entry: ATP assay, sequence `GTGTTGGGTG` , switch fluorescence ratio = 1.01

Lab entry: ATP assay, sequence `ACGGGGTCAC` , switch fluorescence ratio = 1.03

Lab entry: ATP assay, sequence `GCTTTAATTG` , switch fluorescence ratio = 1

Lab entry: ATP assay, sequence `TACCAAGTCC` , switch fluorescence ratio = 1.05

Lab entry: ATP assay, sequence `GAAAATTTTT` , switch fluorescence ratio = 1.06

====

tested on: ATP; assay: switch fluorescence ratio, 500 uM ATP over buffer (Cy3 cluster intensity, sum of 5 cycles each) (fold (ratio)); higher = stronger signal-on switching upon ATP binding; sequences stand for … in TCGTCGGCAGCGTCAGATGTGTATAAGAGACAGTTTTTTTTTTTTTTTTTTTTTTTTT…TC; conditions: aptamer strand: ATP DNA aptamer (quencher-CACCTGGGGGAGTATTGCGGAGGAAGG + anchor), 100 nM annealed; ATP concentration: 500 uM;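 also: ATP exposure 15 min at 22 °C before imaging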
measured_endpoint: switch fluorescence ratio
Please reply with the number alone, leaving off any unit.

Example cases with answers are listed next.
1) GGCGTCAGAC	1
2) GGCGGTTAAG	1.01
3) TTGGGTCCAA	0.983
4) ATAGTCGCGC	0.993
5) GGCTTGGAAT	0.989
6) GTGGGCGGGA	1.07
7) TGTAAGCTAG	1.02
8) TGGGTCTACT	0.976
9) GGCGGGTAGA	1.04
10) AACAAATTTT	1.01

response.value for `TTCCCATGTT` (field: switch fluorescence ratio) = 1

response.value for `TGTAATTTTC` (field: switch fluorescence ratio) = 1.05

response.value for `TTTGCGGTCA` (field: switch fluorescence ratio) = 1.02

====

test system: ATP; test: switch fluorescence ratio, 500 uM ATP over buffer (Cy3 cluster intensity, sum of 5 cycles each) (fold (ratio)); higher = stronger signal-on switching upon ATP binding; sequences stand for … in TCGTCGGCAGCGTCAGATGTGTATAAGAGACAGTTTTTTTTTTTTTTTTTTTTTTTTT…TC; conditions: aptamer strand: ATP DNA aptamer (quencher-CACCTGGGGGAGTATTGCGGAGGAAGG + anchor), 100 nM annealed; ATP concentration: 500 uM;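 also: ATP exposure 15 min at 22 °C before imaging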
# switch fluorescence ratio annotations
Please reply with the number alone, leaving off any unit.

1) TATATTTAGT	0.973
2) TCGTTCGCTA	3.15
3) GAGTTTAGGA	0.969
4) TTTTCATGAT	0.991
5) GTTTCTGGCC	0.98

response.value for `TCGGACTTTT` (field: switch fluorescence ratio) = 1.04

response.value for `AGGTTGGGAA` (field: switch fluorescence ratio) = 0.944

response.value for `TTAGGTGTCC` (field: switch fluorescence ratio) = 1.08

====

test system: ATP; experiment: switch fluorescence ratio, 500 uM ATP over buffer (Cy3 cluster intensity, sum of 5 cycles each) (fold (ratio)); higher = stronger signal-on switching upon ATP binding; sequences stand for … in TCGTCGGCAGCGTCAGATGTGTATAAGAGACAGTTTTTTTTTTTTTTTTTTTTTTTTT…TC; settings: aptamer strand: ATP DNA aptamer (quencher-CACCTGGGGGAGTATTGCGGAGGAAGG + anchor), 100 nM annealed; ATP concentration: 500 uM;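 also: ATP exposure 15 min at 22 °C before imaging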
# switch fluorescence ratio annotations

Example cases with answers are listed next.
1. TGAGGGGTTG	1
2. TGGGCGTGTG	1.02
3. TATTAGAGCG	1.02

response.value for `GGTGTGTCTC` (field: switch fluorescence ratio) = 1.03

response.value for `AAGGCAAGTC` (field: switch fluorescence ratio) = 1.13

response.value for `GGGAACATTT` (field: switch fluorescence ratio) = 1.02

response.value for `GGAAGCCACG` (field: switch fluorescence ratio) = 1.06

response.value for `CAGAACTGCG` (field: switch fluorescence ratio) = 1.01

response.value for `TTACGGCGCT` (field: switch fluorescence ratio) = 1.06

response.value for `TGGGAAATT` (field: switch fluorescence ratio) = 1.19

response.value for `GTAACTTTTT` (field: switch fluorescence ratio) = 1.06

response.value for `AAACTGTACT` (field: switch fluorescence ratio) = 1.42

response.value for `CCGGGGAGGT` (field: switch fluorescence ratio) = 1.06

response.value for `GCCGGGGGCG` (field: switch fluorescence ratio) = 0.982

response.value for `GAGTCATGAG` (field: switch fluorescence ratio) = 1.06

response.value for `TGCGGGGGTG` (field: switch fluorescence ratio) = 1.05

response.value for `CAAGGAGGGT` (field: switch fluorescence ratio) = 0.973

response.value for `AGTAAAGCAG` (field: switch fluorescence ratio) = 1

response.value for `TTTATGTCTG` (field: switch fluorescence ratio) = 1.01

response.value for `AGGAATTTTT` (field: switch fluorescence ratio) = 0.968

response.value for `GAGAGGTTGT` (field: switch fluorescence ratio) = 1
